Reported kon values follow for various binders
target: T1, human CD40 extracellular domain with C-terminal His-AviTag (human, UniProt P25942 21-193); experiment: SPR, antibody captured, CD40 ECD analyte;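 further: biacore SPR at 25 °C in PBS-T pH 7.4, CD40 ECD analyte from 300 nM in 1:3 series, 300 s association, up to 1200 s dissociation, double-referenced, Langmuir 1:1 fit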
T1 construct: not shown: C-terminal His-AviTag
T1 sequence (P25942 21-193): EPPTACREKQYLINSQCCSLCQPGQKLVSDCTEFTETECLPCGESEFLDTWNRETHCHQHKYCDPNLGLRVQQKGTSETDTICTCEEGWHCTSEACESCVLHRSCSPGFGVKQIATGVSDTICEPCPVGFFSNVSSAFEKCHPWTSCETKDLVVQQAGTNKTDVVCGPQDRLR
Give a bare numeral; the unit M⁻¹ s⁻¹ is implied.

// solved cases for kon follow
Documented kon of P1AE0993, humanized anti-CD40 antibody VH1a/VL1c, huIgG1_LALA_PG (antibody, V domains shown, huIgG1 with effector silent Fc (P329G, L234A, L235A)) VH: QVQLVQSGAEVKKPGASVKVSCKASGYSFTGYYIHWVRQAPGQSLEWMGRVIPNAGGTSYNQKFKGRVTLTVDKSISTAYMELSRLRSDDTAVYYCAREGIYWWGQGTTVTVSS VL: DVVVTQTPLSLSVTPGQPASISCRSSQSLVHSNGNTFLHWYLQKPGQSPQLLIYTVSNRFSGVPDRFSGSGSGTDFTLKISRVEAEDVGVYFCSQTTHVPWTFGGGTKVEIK : 2.68e+06

Documented kon of P1AE0401, humanized anti-CD40 antibody VH2b/VL2a, huIgG1_LALA_PG (antibody, V domains shown, huIgG1 with effector silent Fc (P329G, L234A, L235A); also called VL2a/VH2b) VH: EVQLLESGGGLVQPGGSLRLSCAASGYSFTGYYIHWVRQAPGKSLEWVGRVIPNAGGTSYNQKFKGRFTISVDNSKNTAYLQMNSLRAEDTAVYYCAREGIYWWGQGTTVTVSS VL: DIQMTQSPSSLSASVGDRVTITCRSSQSLVHSNGNTFLHWYQQKPGKAPKLLIYTVSNRFSGVPSRFSGSGSGTDFTLTISSLQPEDFATYFCSQTTHVPWTFGGGTKVEIK : 1.69e+06

Documented kon of P1AE0403, humanized anti-CD40 antibody VH2d/VL2a, huIgG1_LALA_PG (antibody, V domains shown, also called VL2a/VH2d) VH: EVQLLESGGGLVQPGGSLRLSCAASGYSFTGYYIHWVRQAPGKGLEWVGRVIPNAGGTSYGDSVKGRFTISVDNSKNTAYLQMNSLRAEDTAVYYCAREGIYWWGQGTTVTVSS VL: DIQMTQSPSSLSASVGDRVTITCRSSQSLVHSNGNTFLHWYQQKPGKAPKLLIYTVSNRFSGVPSRFSGSGSGTDFTLTISSLQPEDFATYFCSQTTHVPWTFGGGTKVEIKR : 1.4e+06

Documented kon of P1AE0999, humanized anti-CD40 antibody VH1d/VL1a, huIgG1_LALA_PG (antibody, V domains shown, huIgG1 with effector silent Fc (P329G, L234A, L235A)) VH: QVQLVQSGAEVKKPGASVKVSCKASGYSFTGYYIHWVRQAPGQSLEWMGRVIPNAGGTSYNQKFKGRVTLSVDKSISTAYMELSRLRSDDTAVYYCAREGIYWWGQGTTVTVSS VL: DIVMTQTPLSLSVTPGQPASISCRSSQSLVHSNGNTFLHWYLQKPGQSPQLLIYTVSNRFSGVPDRFSGSGSGTDFTLKISRVEAEDVGVYFCSQTTHVPWTFGGGTKVEIK : 2.45e+06

More entries:
Documented kon of P1AE0406, humanized anti-CD40 antibody VH2c/VL2b, huIgG1_LALA_PG (antibody, V domains shown, huIgG1 with effector silent Fc (P329G, L234A, L235A); also called VL2b/VH2c) VH: EVQLLESGGGLVQPGGSLRLSCAASGYSFTGYYIHWVRQAPGKGLEWVGRVIPNAGGTSYNQKFKGRFTISVDNSKNTAYLQMNSLRAEDTAVYYCAREGIYWWGHGTTVTVSS VL: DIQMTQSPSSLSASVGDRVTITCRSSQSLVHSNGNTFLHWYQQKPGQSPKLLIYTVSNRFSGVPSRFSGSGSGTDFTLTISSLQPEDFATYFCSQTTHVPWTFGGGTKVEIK : 1.67e+06
